Assay protocol: Compound cytotoxicity, XTT-based colorimetric assay
Type: cell-based
Assay setup: human, uninfected MT2 cells, Table 1, day 4, XTT
Reported endpoint: CC50 at 4 days

[in] Quick check: CC50 at 4 days of Cc1nc2nc(C(Cc3cc(F)cc(F)c3)NC(=O)Cn3nc(C(F)F)c4c3C(F)(F)[C@@H]3C[C@H]43)c(-c3ccc(Cl)c4c(NS(C)(=O)=O)nn(C)c34)cc2s1 (single isomer, unassigned) ?
[out] > 10 µM

[in] Quick check: CC50 at 4 days of COc1ccc2c(=O)n(-c3ccc(Cl)c4c(NS(C)(=O)=O)nn(C)c34)c(C(Cc3cc(F)cc(F)c3)NC(=O)Cn3nc(C(F)F)c4c3C(F)(F)C3CC43)nc2n1 (stereo in doubt) ?
[out] > 10 µM

[in] Quick check: CC50 at 4 days of COc1ccc(-n2c([C@H](Cc3cc(F)cc(F)c3)NC(=O)Cn3nc(C(F)F)c4c3C(F)(F)[C@@H]3C[C@H]43)nc3ccccc3c2=O)cc1 ?
[out] > 10 µM

[in] Quick check: CC50 at 4 days of Cn1nc(NS(C)(=O)=O)c2c(Cl)ccc(-n3c([C@H](Cc4cc(F)cc(F)c4)NC(=O)Cn4nc(C(F)F)c5c4C(F)(F)[C@@H]4C[C@H]54)nc4cc(C#N)ccc4c3=O)c21 (single isomer, unassigned) ?
[out] > 10 µM

[in] Quick check: CC50 at 4 days of CS(=O)(=O)Nc1nn(CC(F)F)c2c(-n3c([C@H](Cc4cc(F)cc(F)c4)NC(=O)Cn4nc(C(F)F)c5c4C(F)(F)C4CC54)nc4ncccc4c3=O)ccc(Cl)c12 (single isomer, unassigned) ?
[out] > 10 µM

[in] Quick check: CC50 at 4 days of Cn1nc(NS(C)(=O)=O)c2c(Cl)ccc(-c3cc4[nH]ccc4nc3C(Cc3cc(F)cc(F)c3)NC(=O)Cn3nc(C(F)F)c4c3C(F)(F)[C@@H]3C[C@H]43)c21 (single isomer, unassigned) ?
[out] > 10 µM

[in] Quick check: CC50 at 4 days of Cn1nc(NS(C)(=O)=O)c2c(Cl)ccc(-c3cc4[nH]ncc4nc3[C@H](Cc3cc(F)cc(F)c3)NC(=O)Cn3nc(C(F)F)c4c3C(F)(F)[C@@H]3C[C@H]43)c21 ?
[out] 33.9 µM

[in] Quick check: CC50 at 4 days of N#Cc1cc(-c2cc3[nH]ncc3nc2[C@H](Cc2cc(F)cc(F)c2)NC(=O)Cn2nc(C(F)F)c3c2C(F)(F)[C@@H]2C[C@H]32)ccc1Cl ?
[out] 5.5 µM

[in] Quick check: CC50 at 4 days of O=C(Cn1nc(C(F)F)c2c1C(F)(F)[C@@H]1C[C@H]21)N[C@@H](Cc1cc(F)cc(F)c1)c1nc2cn[nH]c2cc1-c1cccc2c1CNC2=O ?
[out] > 10 µM

[in] Quick check: CC50 at 4 days of Cn1nc(NS(C)(=O)=O)c2c(Cl)ccc(-c3cc4scnc4nc3C(Cc3cc(F)cc(F)c3)NC(=O)Cn3nc(C(F)F)c4c3C(F)(F)[C@@H]3C[C@H]43)c21 (single isomer, unassigned) ?
[out] > 10 µM
